src = the RNAGym collection of RNA variant scans (doi:10.7554/elife.80360)

B1: CPEB3 Ribozyme (parent)
chain: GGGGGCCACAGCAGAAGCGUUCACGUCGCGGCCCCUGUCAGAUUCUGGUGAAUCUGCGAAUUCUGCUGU

Variants of: B1
method-description: self-cleavage, relative activity (ratio to wild type); higher = more cleavage; co-transcriptional
Measured self-cleavage accompanies every entry in the list below.
readout-type: self-cleavage

| query-sequence | readout-number |
| --- | --- |
| GGGGGCCACAGCAGAAGCGUUCACGUCGCGGCCCCUGUCAGAUUAUGGUCAAUCUGCGAAUUCUGCUGU [C45A G50C] | 0.931 |
| GGGGGCCACUGCAGAAGCGUUCACGUCGCGGCCCCUGUCAGAUUCUGGUGAAUCCGCGAAUUCUGCUGU [A10U U55C] | 0.9 |
| GGGGGCCACAGCAGAAGCGUUCACGUGGCGGCCCCUGUCAGAUUCUAGUGAAUCUGCGAAUUCUGCUGU [C27G G47A] | 0.265 |
| GGGGGCCACAGCAGAGGCGUUCACGUCGCGGCCCCUGUCAGAUUCUGGCGAAUCUGCGAAUUCUGCUGU [A16G U49C] | 0.854 |
| GGGGGCCACAGCAGAGGCGUUCACGUAGCGGCCCCUGUCAGAUUCUGGUGAAUCUGCGAAUUCUGCUGU [A16G C27A] | 0.481 |
| GGGGGCCACAGCAGAAGCGUUCACGUCGCGGCCCCUGUCAGCUUCUGGUGAAUAUGCGAAUUCUGCUGU [A42C C54A] | 0.707 |
| GGGGGCCACAGCAGAUGCGUUCACGUCGCGGCCCCUGUCAGAUUCUGGUGAAUCUGCGAAUUCUUCUGU [A16U G65U] | 0.4 |
| GGGGGCCACAGCAGAAGCGUUCACGUCGCGGCCCCUGUCAGAUUCUGGUUAAUCUGCGAAUUCUCCUGU [G50U G65C] | 0.73 |
| GGGGGCCACAGCAGAAGCGUUCCCGUCGCGGCCCCUGUCAGAUUCUGGUGAAUAUGCGAAUUCUGCUGU [A23C C54A] | 0.849 |
| GGGGGCCACAGCAGAACCGUUCACGUCGCGACCCCUGUCAGAUUCUGGUGAAUCUGCGAAUUCUGCUGU [G17C G31A] | 0.111 |
| GGGGGCCAGAGCAGAAUCGUUCACGUCGCGGCCCCUGUCAGAUUCUGGUGAAUCUGCGAAUUCUGCUGU [C9G G17U] | 0.68 |
